Listed here are molecules together with their documented MIC.
System: E. coli TK-111
test_protocol: Antibacterial activity (MIC), agar dilution
Type: cell-based
assay_context: Escherichia coli, TK111, 20 h, E. coli TK-111; 10^6 cells per ml; 37° C., 20 hours; read-out: MIC

Recorded MIC, per entry:
- mol_smiles: "CC(=O)Oc1ccc(-n2cc(C(=O)O)c(=O)cc2-c2ccc(N(C)C)cc2)cc1"
  observable: "MIC"
  result: "≤ 0.05 µg/mL"
- mol_smiles: "Cc1nc(-c2ccc(-c3cc(=O)c(C(=O)O)cn3-c3ccc(O)cc3C)cc2)cs1"
  observable: "MIC"
  result: "≤ 0.05 µg/mL"
- mol_smiles: "Cn1ccc2cc(-c3cc(=O)c(C(=O)O)cn3-c3ccc(O)cc3F)ccc21"
  observable: "MIC"
  result: "≤ 0.05 µg/mL"
- mol_smiles: "Cn1ccc2cc(-c3cc(=O)c(C(=O)O)cn3-c3ccc(O)cc3)ccc21"
  observable: "MIC"
  result: "≤ 0.05 µg/mL"
- mol_smiles: "CC(=O)Oc1ccc(-n2cc(C(=O)O)c(=O)cc2-c2cc3ccccc3s2)c(F)c1"
  observable: "MIC"
  result: "≤ 0.05 µg/mL"

Query MIC on E. coli TK-111 for `O=C(O)c1cn(-c2ccc(O)cc2)c(-c2ccc(-c3ccccc3)s2)cc1=O`
≤ 0.05 µg/mL

Same question for `Cc1nc(-c2ccc(-c3cc(=O)c(C(=O)O)cn3-c3ccc(O)cc3C)cc2)co1` please.
≤ 0.05 µg/mL

Record: `O=C(O)c1cn(-c2ccc(O)cc2F)c(-c2ccc(N3CCCC3)cc2)cc1=O`
≤ 0.05 µg/mL
